- Test system: U-251
- EXPERIMENT_SUMMARY: NCI tumour cell line growth inhibition, 48 h
Active and inactive are the calls of the source. Cut-off read from the data, not from the text of the source: active = GI50 up to about 1.1 µM and inactive = higher.
Pick one: active, inactive

Problem: Recorded call for CCN(CC(O)COc1ccc2c(c1)[n+]([O-])nc(N)[n+]2[O-])C(C)=O (stereo not drawn) ?
Solution: inactive

Problem: Recorded call for "Cc1ccc(NC(=O)c2ccccc2C(=O)O)cc1C" ?
Solution: inactive

Problem: Recorded call for "C[C@@H](c1ccccc1)n1c(N)c(-c2ccccn2)c2ccc([N+](=O)[O-])cc2c1=O" ?
Solution: inactive

Problem: Recorded call for COc1cccc(NC(=O)C(=O)C2C=CCS2(=O)=O)c1 (stereo not drawn) ?
Solution: inactive

Problem: Recorded call for "[N-]=[N+]=NI1OC(C(F)(F)F)(C(F)(F)F)c2ccccc21" ?
Solution: inactive

Problem: Recorded call for "COc1ccc(-c2c(N)[n+]([O-])c3ccccc3[n+]2[O-])cc1OC" ?
Solution: inactive

Problem: Recorded call for FC(F)(F)c1ccc2c(c1)nc(Cc1ccc(Cl)cc1)n2CC1CCCN2CCCCC12 (stereo not drawn) ?
Solution: inactive

Problem: Recorded call for "COc1cc2c(cc1OCCCCOc1cc(-c3ccc(F)cc3)nc(C)n1)N=C[C@@H]1CCCN1C2=O" ?
Solution: active

* * *

- System: HCC 2998
- EXPERIMENT_SUMMARY: NCI tumour cell line growth inhibition, 48 h
Activity calls are given as the source filed them. Rule as the data show it: active = GI50 up to about 1.1 µM and inactive = higher.
QUANTITY_NAME: GI50

Problem: Give its GI50 value. Item: "N=C(NC(=N)Nc1ccc(S(=O)(=O)Nc2cnc3ccccc3n2)cc1)Nc1ccc(Br)cc1"
Solution: > 100 µM (inactive)

Problem: Give its GI50 value. Item: "Cc1cc(Nc2ccc(S(=O)(=O)O)c3cc(S(=O)(=O)O)cc(S(=O)(=O)O)c23)c2ccccc2n1"
Solution: > 100 µM (inactive)

Problem: Give its GI50 value. Item: "O=C(O)Cc1cccc2c(=O)cc(-c3ccccc3)oc12"
Solution: > 250 µM (inactive)

Problem: Give its GI50 value. Item: O=C1CSC(c2ccccc2)N1c1nc2cc3sc(N4C(=O)CSC4c4ccccc4)nc3cc2s1 (stereo not given)
Solution: > 93.3 µM (inactive)

Problem: Give its GI50 value. Item: "C[C@]12CC[C@H]3[C@@H](CCC4=C/C(=N/OCCN5CCCCC5)CC[C@@]43C)[C@@H]1CC[C@@H]2O"
Solution: 14.4 µM (inactive)

Problem: Give its GI50 value. Item: "COc1ccc(-c2cc(O)c3cccnc3n2)cc1"
Solution: 82 µM (inactive)

Problem: Give its GI50 value. Item: "CCN(C)c1nc(N(C)CC)c2nc(N(C)CC)nc(N(C)CC)c2n1"
Solution: > 100 µM (inactive)

Problem: Give its GI50 value. Item: CC1=CC(=O)N(c2c(C)cccc2Cl)C(C)N1 (stereo not given)
Solution: > 100 µM (inactive)

Problem: Give its GI50 value. Item: "O=C1c2c(Br)sc(Br)c2[C@H]2NC(=S)O[C@@H]12"
Solution: 20.5 µM (inactive)

Problem: Give its GI50 value. Item: "CSC(=S)NNC(=O)c1ccncc1"
Solution: 23.6 µM (inactive)

* * *

- Test system: SR
- EXPERIMENT_SUMMARY: NCI tumour cell line growth inhibition, 48 h
Calls of active or inactive are those of the source. Cut-off read from the data, not from the text of the source: active = GI50 up to about 1.1 µM and inactive = higher.
Pick one: active, inactive

Problem: Recorded call for COc1cccc2c1C(=O)c1c(O)c3c(c(O)c1C2=O)C[C@@](O)(C(=O)CO)CC3OC1CC(NCCCC(OC(C)=O)OC(C)=O)C(O)C(C)O1 (stereo not given in full) ?
Solution: active

Problem: Recorded call for "CN1CCC(CNC(=O)CCCCCCCCC(=O)NCC2(c3ccccc3)CCN(C)CC2)(c2ccccc2)CC1" ?
Solution: inactive

Problem: Recorded call for "COc1ccc(/C=N/NC(=O)c2sc(=S)n(-c3ccccc3)c2N)cc1" ?
Solution: inactive

Problem: Recorded call for CCOC1Oc2ccccc2-c2nc(SC)ncc21 (stereo not given) ?
Solution: inactive

Problem: Recorded call for COc1cc(OC)c2c(O)cc(CC(C)O)cc2c1 (stereo not given) ?
Solution: inactive

* * *

Could you please report measured GI50 for the items listed next?
- Test system: HOP-18
- EXPERIMENT_SUMMARY: NCI tumour cell line growth inhibition, 48 h
Activity calls are given as the source filed them. Rule as the data show it: active = GI50 up to about 1.1 µM and inactive = higher.

Problem: What is its GI50 for HOP-18? Entry: "COc1ccc(/C=C\c2cc(OC)c(OC)c(OC)c2)c(O)c1O"
Solution: > 26.4 µM (inactive)

Problem: What is its GI50 for HOP-18? Entry: NC(CCCNc1ccc(O)cc1)C(=O)O (configuration not stated)
Solution: > 76.4 µM (inactive)

Problem: What is its GI50 for HOP-18? Entry: CCC1=CC2CN3CCc4c([nH]c5ccccc45)C(C(=O)OC)(C2)C13 (configuration not stated)
Solution: 47.9 µM (inactive)

Problem: What is its GI50 for HOP-18? Entry: NC1=NC(c2ccccc2)CC(c2cc(Cl)cc(Br)c2O)=N1 (configuration not stated)
Solution: 17.7 µM (inactive)

Problem: What is its GI50 for HOP-18? Entry: CCOC1c2cc(OC)c(OC)cc2-c2ccc3ccccc3c2N1C (configuration not stated)
Solution: 42.4 µM (inactive)

Problem: What is its GI50 for HOP-18? Entry: O=C(CC1(O)C(=O)Nc2ccc([N+](=O)[O-])cc21)c1ccc(Br)cc1 (configuration not stated)
Solution: > 100 µM (inactive)

Problem: What is its GI50 for HOP-18? Entry: "CN1CCCS/C1=C1/SC(=S)N(c2ccccc2)C1=O"
Solution: > 100 µM (inactive)

Problem: What is its GI50 for HOP-18? Entry: "CN(C(=O)c1ccco1)C(=S)N1CCN(c2ccccn2)CC1"
Solution: > 100 µM (inactive)

Problem: What is its GI50 for HOP-18? Entry: Cc1c(Cl)ccc2c1NC(=O)C2(O)CC(=O)c1ccc2ccccc2c1 (configuration not stated)
Solution: > 100 µM (inactive)

Problem: What is its GI50 for HOP-18? Entry: "COc1cc2c(c(OC)c1OC)-c1ccc(OC)c(=O)cc1[C@@H](NC(C)=O)CC2"
Solution: > 68.9 µM (inactive)

Problem: What is its GI50 for HOP-18? Entry: COC(=O)C(=O)C(C(=O)C(=O)Nc1ccc([N+](=O)[O-])cc1[N+](=O)[O-])c1nc2ccc([N+](=O)[O-])cc2nc1O (configuration not stated)
Solution: 22.1 µM (inactive)

Problem: What is its GI50 for HOP-18? Entry: CN1Cc2ccccc2C2(COc3ccccc3C2=O)C1 (configuration not stated)
Solution: > 100 µM (inactive)

Problem: What is its GI50 for HOP-18? Entry: "COc1ccc2c(c1OC)C(=O)c1cnccc1C2=O"
Solution: > 100 µM (inactive)

Problem: What is its GI50 for HOP-18? Entry: CC1=CC(=O)N(c2c(C)cccc2Cl)C(C)N1 (configuration not stated)
Solution: > 100 µM (inactive)

Problem: What is its GI50 for HOP-18? Entry: "NC(=O)c1ncn(Cc2ccccc2)c1CNC(N)=S"
Solution: > 100 µM (inactive)

Problem: What is its GI50 for HOP-18? Entry: "Cc1cccc(C)c1NC(=O)/C(Cl)=C(/Cl)C(=O)O"
Solution: 20.3 µM (inactive)

Problem: What is its GI50 for HOP-18? Entry: CCCCN(CCCC)C(=O)C(=O)C(C(=O)c1ccc(OC)cc1)c1ccc(OC)cc1 (configuration not stated)
Solution: > 100 µM (inactive)

* * *

- Test system: A549
- EXPERIMENT_SUMMARY: NCI tumour cell line growth inhibition, 48 h
Where a name gives a salt, the structure may show the parent alone. Activity calls are given as the source filed them. No stated cut-off is given here; in the data, active = GI50 up to about 1.1 µM and inactive = higher.
Pick one: true (1) = active, false (0) = inactive

Problem: Recorded call for CC[C@@]1(O)C(=O)OCc2c1cc1n(c2=O)Cc2cc3c(CN(C)C)c(O)ccc3nc2-1 [TOPOTECAN HYDROCHLORIDE] ?
Solution: true (1)

Problem: Recorded call for CCOP(C)(=O)C(Nc1ccc(F)cc1)c1ccc(F)cc1 (stereo not given) ?
Solution: false (0)

Problem: Recorded call for "O=[N+]([O-])c1ccc(Cl)cc1N/N=C/c1cccs1" ?
Solution: false (0)

Problem: Recorded call for "c1ccc(-c2cc(-c3cc(-c4ccccn4)[nH]n3)n[nH]2)nc1" ?
Solution: false (0)

Problem: Recorded call for "O=[N+]([O-])c1ccc2c(c1)=[N+]([O-])C1(CCCCC1)[N+]=2[O-]" ?
Solution: false (0)

Problem: Recorded call for C[C@]12CCc3nonc3C1CC[C@@H]1C2CC[C@]2(C)C(=O)CCC12 (stereo not given in full) ?
Solution: false (0)

Problem: Recorded call for "CN(C(=O)c1ccco1)C(=S)N1CCN(c2ccccn2)CC1" ?
Solution: false (0)

Problem: Recorded call for "O=C1c2c(Br)sc(Br)c2[C@H]2NC(=S)O[C@@H]12" ?
Solution: false (0)

Problem: Recorded call for O=C(CC(=O)N1N=C(c2ccccc2)C(/N=N/c2ccccc2Cl)C1=O)Nc1ccccc1Cl (stereo not given) ?
Solution: false (0)

Problem: Recorded call for "CSC(=S)NNC(=O)c1ccncc1" ?
Solution: false (0)
